# system.tested: c-Src SH2
# assay.explanation: SH2 binding enrichment of the phosphorylated peptide, bacterial display (enrichment ratio); higher = better substrate or ligand; peptides without Tyr show the background;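 note: peptide library displayed on the E. coli surface as eCPX fusions, selected cells deep-sequenced, score is each peptide's frequency after selection divided by its frequency in the input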
Would you please tag the item 1 when its SH2 binding enrichment is 0.6 or above, and -1 when it is below?

Would you please look over these solved cases?
# sequence.text, system.tested, category.label
records = [
    ("YETSHYPASPD [CTNND2_Y1217]", "c-Src SH2", 1),
    ("LLGFLYFFVCS [SLC34A2_Y109]", "c-Src SH2", 1),
    ("SAEEDYKADAK [KCNT1_Y876_M877K]", "c-Src SH2", -1),
    ("GFSDPYVKASL [SYT3_Y470]", "c-Src SH2", -1),
]

Ask | In plain terms: is recorded SH2 binding enrichment at least 0.6 for ALTDNYMFVVI [HAGH_Y61_L64V_YF] ?
Reply | -1

Ask | Let us now turn to QWRTKYETDTI [MYH7_Y1375_A1379T]
Reply | -1

Ask | And then EKQARYEIVVE [CDH5_Y223] , what is it?
Reply | 1

Ask | What would you report for VSRGRYRPEEC [B4GALT4_Y113_Q116E] ?
Reply | -1

====

# system.tested: Grb2 SH2 (UniProt P62993)
# Sequence (P62993 whole entry, looked up): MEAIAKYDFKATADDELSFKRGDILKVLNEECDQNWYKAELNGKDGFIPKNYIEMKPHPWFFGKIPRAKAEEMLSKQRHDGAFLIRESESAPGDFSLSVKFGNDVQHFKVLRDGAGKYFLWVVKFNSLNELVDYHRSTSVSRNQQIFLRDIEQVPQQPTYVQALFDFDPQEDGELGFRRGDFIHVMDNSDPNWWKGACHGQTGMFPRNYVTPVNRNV
# assay.explanation: SH2 binding enrichment of the phosphorylated peptide, bacterial display (enrichment ratio); higher = better substrate or ligand; peptides without Tyr show the background
The reader will find reported SH2 binding enrichment values listed item by item below.

Consider the worked cases shown below.
# sequence.text, system.tested, SH2 binding enrichment
measured = [
    ("NQKGKYFNVER [ANAPC4_Y469_R465Q]", "Grb2 SH2 (UniProt P62993)", 1.15),
    ("ALPVFYAATIA [SLC20A2_Y187]", "Grb2 SH2 (UniProt P62993)", 0.793),
    ("SGLDSYVRSLP [TRAPPC1_Y133_R129G]", "Grb2 SH2 (UniProt P62993)", 0.799),
    ("EIIPFYGMSTF [FNDC3B_Y175_YF]", "Grb2 SH2 (UniProt P62993)", 0.731),
]

Moving on to the next sequence.
Ask | Please give the measured SH2 binding enrichment for this sequence: CTTIHYNYMYN [TP53_Y234_C238Y]
Reply | 0.843

====

Recorded SH2 binding enrichment by entry
# system.tested: Grb2 SH2 (UniProt P62993)
# assay.explanation: SH2 binding enrichment of the phosphorylated peptide, bacterial display (enrichment ratio); higher = better substrate or ligand; peptides without Tyr show the background
Please give only the number in your answer, with no unit.

These recorded examples may help you get a feel for the data.
# sequence.text, system.tested, SH2 binding enrichment
measured = [
    ("EYKDAYTFAAD [BRDT_Y335_K336T]", "Grb2 SH2 (UniProt P62993)", 0.876),
    ("IGVDSYSVCKR [RPS6KA3_Y433_G431D]", "Grb2 SH2 (UniProt P62993)", 0.908),
    ("HFVDEYDLTIE [KRAS_Y32_P34L]", "Grb2 SH2 (UniProt P62993)", 0.874),
    ("TSESSYYKSLN [NGEF_Y288_A286S]", "Grb2 SH2 (UniProt P62993)", 0.892),
    ("SIKNKYVTALY [KCNH2_Y611_D609N]", "Grb2 SH2 (UniProt P62993)", 0.909),
]

Ask | Under Grb2 SH2 (UniProt P62993): SH2 binding enrichment value of SLYPGYNFRYA [P2RX7_Y291] ?
Reply | 0.91

Ask | Another sequence to look at: TTKAKYKTPIY [PLD2_Y573_T577I]
Reply | 0.908
